Attribution: patent US10280169B2

compounds and their reported IC50
study.target: pBTK (Homo sapiens, UniProt Q06187)
Construct: Heparinized venous blood was purchased from Bioreclamation, Inc. or SeraCare Life Sciences; tissue Bioreclamation, Inc. or SeraCare Life Sciences
Sequence (Q06187 whole entry): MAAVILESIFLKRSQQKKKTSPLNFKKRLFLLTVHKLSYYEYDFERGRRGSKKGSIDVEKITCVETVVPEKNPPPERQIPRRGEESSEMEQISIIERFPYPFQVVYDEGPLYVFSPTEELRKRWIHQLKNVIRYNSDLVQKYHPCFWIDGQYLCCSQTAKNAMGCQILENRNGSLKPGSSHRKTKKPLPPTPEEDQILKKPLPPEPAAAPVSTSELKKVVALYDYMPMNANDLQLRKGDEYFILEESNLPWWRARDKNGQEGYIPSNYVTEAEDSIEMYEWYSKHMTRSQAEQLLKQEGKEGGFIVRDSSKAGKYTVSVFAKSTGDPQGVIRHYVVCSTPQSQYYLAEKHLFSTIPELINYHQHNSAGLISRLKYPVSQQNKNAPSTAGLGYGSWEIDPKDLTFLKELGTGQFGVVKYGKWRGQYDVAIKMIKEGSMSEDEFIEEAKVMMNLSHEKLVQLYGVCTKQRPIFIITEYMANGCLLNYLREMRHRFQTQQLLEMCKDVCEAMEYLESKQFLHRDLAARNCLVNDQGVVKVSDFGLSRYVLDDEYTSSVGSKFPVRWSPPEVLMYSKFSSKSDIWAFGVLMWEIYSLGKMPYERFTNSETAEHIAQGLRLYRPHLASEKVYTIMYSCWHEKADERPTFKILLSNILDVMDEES
experiment.summary: In vitro PD assay in whole blood (pBTK assay)
condition.details: 30 min at 37° C.

{"compound": "Cc1cc(-c2ncnc3[nH]c(-c4cnn(C)c4)cc23)ccc1C(CO)NC(=O)c1cc2c(s1)CCOC2 (stereo not shown) [Example I-32]", "IC50": "< 500 nM"}
{"compound": "Cc1cc(-c2ncnc3cc(-c4cnn(C)c4)[nH]c23)ccc1CNC(=O)N1CC(OC(C)C)C1 [Example I-43]", "IC50": "500 to 1500 nM"}
{"compound": "Cn1cc(-c2cc3c(-c4ccc5c(c4)CCCC5NC(=O)c4cc5c(s4)CCOC5)ncnc3[nH]2)cn1 (stereo not shown) [Example I-35]", "IC50": "500 to 1500 nM"}
{"compound": "Cc1cc(-c2ncnc3[nH]ncc23)ccc1CNC(=O)c1nc2c(s1)CCCC2 [Example I-119]", "IC50": "1500 to 10000 nM"}
{"compound": "Cc1cc(-c2ncnc3[nH]ncc23)ccc1CNC(=O)c1cc2c(s1)CCCC2 [Example I-85]", "IC50": "1500 to 10000 nM"}
{"compound": "Cc1cc(-c2ncnc3[nH]c(-c4cnn(C)c4)cc23)ccc1C(C)NC(=O)c1cnc(C(C)(C)C)s1 (stereo not shown) [Example I-112]", "IC50": "< 500 nM"}
{"compound": "Cc1cc(-c2ncnc3nc(N4CCOCC4)[nH]c23)ccc1CNC(=O)c1cnc(C(C)(C)C)s1 [Example I-48]", "IC50": "< 500 nM"}
